Test system: Pseudomonas aeruginosa
Protocol details: Antibacterial activity against Pseudomonas aeruginosa ATCC 9027 assessed as bacterial growth inhibition by CLSI protocol based serial microdilution method
Type: functional
Experimental endpoint: MIC (µg/mL)
Just the number in µg/mL, nothing appended.

Input line: Dear colleague, please send me the reported MIC for "CCCCCCCCCCCC[N+]12CC[N+](Cc3cccc(-c4ccccc4C[N+]45CC[N+](CCCCCCCCCCCC)(CC4)CC5)c3)(CC1)CC2" when you can.
Output line: 3.1

Input line: For "CCCCCCCCCCCC[N+]12CC[N+](Cc3nnn(CCCCCN=[N+]=[N-])c3C[N+]34CC[N+](CCCCCCCCCCCC)(CC3)CC4)(CC1)CC2.[Cl-].[Cl-].[Cl-].[Cl-]" , write its MIC.
Output line: 3.1

Input line: Please give measured MIC of the following entry: "CCCCCCCCCCCC[N+]12CC[N+](Cc3nnn(CCCCC(=O)OC)c3C[N+]34CC[N+](CCCCCCCCCCCC)(CC3)CC4)(CC1)CC2.[Cl-].[Cl-].[Cl-].[Cl-]"
Output line: 6.3

Input line: Name the recorded MIC of the item "CCCCCCCCCCCC[N+]12CC[N+](CCCC[N+]34CC[N+](CCCCCCCCCCCC)(CC3)CC4)(CC1)CC2" in your answer.
Output line: 1.6

Input line: Kindly indicate its recorded MIC. Item: "CCCCCCCCCCCC[N+]12CC[N+](CC#CC[N+]34CC[N+](CCCCCCCCCCCC)(CC3)CC4)(CC1)CC2"
Output line: 3.1

Input line: Specify reported MIC for the compound shown: "CCCCCCCCCCCC[N+]12CC[N+](CCNCC[N+]34CC[N+](CCCCCCCCCCCC)(CC3)CC4)(CC1)CC2.[Cl-].[Cl-].[Cl-].[Cl-]"
Output line: 1.6

Input line: Consider the compound "CCCCCCCCCCCC[N+]12CC[N+](Cc3ccc(C[N+]45CC[N+](CCCCCCCCCCCC)(CC4)CC5)cc3)(CC1)CC2" . State its measured MIC.
Output line: 6.3

====

Protocol details: Selectivity index, ratio of CC50 for HEK293T cells assessed as reduction in cell viability measured after 24 hrs by MTT assay to MIC for Citrobacter freundii ATCC 8090 assessed as bacterial growth inhibition by CLSI protocol based serial microdilution method
Assay type: toxicity
Conditions used: human, read-out: Selectivity Index
Experimental endpoint: selectivity ratio at 24 h

Input line: Answer with the recorded selectivity ratio at 24 h for the molecule listed here: "CCCCCCCCCCCC[N+]12CC[N+](Cc3cccc(C[N+]45CC[N+](CCCCCCCCCCCC)(CC4)CC5)c3)(CC1)CC2"
Output line: 10

Input line: Look up and state reported selectivity ratio at 24 h for "CCCCCCCCCCCC[N+]12CC[N+](Cc3ccccc3C[N+]34CC[N+](CCCCCCCCCCCC)(CC3)CC4)(CC1)CC2"
Output line: 3

Input line: Answer with the recorded selectivity ratio at 24 h of "CCCCCCCCCCCC[N+]12CC[N+](Cc3ccc(C[N+]45CC[N+](CCCCCCCCCCCC)(CC4)CC5)cc3)(CC1)CC2" only.
Output line: 10

Input line: Kindly indicate its recorded selectivity ratio at 24 h. Item: "CCCCCCCCCCCC[N+]12CC[N+](CCCC[N+]34CC[N+](CCCCCCCCCCCC)(CC3)CC4)(CC1)CC2"
Output line: 3

This collection of values is drawn from ChEMBL document CHEMBL4715780.
